Assignment: determine reported pEC50, in vitro inhibition of cAMP for the given molecules.
# TARGET: GPR6 receptor expressed in CHO-K1 cells (Homo sapiens, UniProt P46095)
# Construct: expressed in transfected cells
# Sequence (P46095 whole entry): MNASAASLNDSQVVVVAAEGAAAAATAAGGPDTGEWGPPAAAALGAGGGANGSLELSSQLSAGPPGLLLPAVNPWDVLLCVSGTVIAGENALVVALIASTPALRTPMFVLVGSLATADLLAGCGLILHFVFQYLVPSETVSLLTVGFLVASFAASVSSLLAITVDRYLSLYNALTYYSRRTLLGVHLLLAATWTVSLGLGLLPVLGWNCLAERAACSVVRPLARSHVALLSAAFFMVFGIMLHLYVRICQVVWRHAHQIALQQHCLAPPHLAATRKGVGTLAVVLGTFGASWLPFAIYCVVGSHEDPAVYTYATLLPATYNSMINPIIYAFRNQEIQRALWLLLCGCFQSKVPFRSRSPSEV
# ASSAY REMARKS: In vitro inhibition of cAMP (EC50), cell-based HTRF cAMP assay
# TEST PARAMETERS: inhibition of constitutive cAMP activity of GPR6 in CHO-K1 cells
Answers are plain numbers.

[ask] What pEC50, in vitro inhibition of cAMP appears in the records for this molecule with GPR6 receptor expressed in CHO-K1 cells (Homo sapiens, UniProt P46095)? COc1nc(Cl)ccc1C(=O)Nc1cc(C#N)ccc1N1CCC(Oc2ccc(F)cc2F)CC1 [Example 191]
[reply] 6.8

[ask] Record COc1nn(C)cc1C(=O)Nc1cc(C#N)cnc1N1CCN(Cc2cc(C#N)ccc2F)CC1 [Example 151] : what is its pEC50, in vitro inhibition of cAMP with GPR6 receptor expressed in CHO-K1 cells (Homo sapiens, UniProt P46095)?
[reply] 6.3

[ask] Request: pEC50, in vitro inhibition of cAMP, test system GPR6 receptor expressed in CHO-K1 cells (Homo sapiens, UniProt P46095), entry COc1ncccc1C(=O)Nc1cnc(C(F)(F)F)cc1N1CCC(Oc2ccc(F)cc2F)CC1 [Example 289]
[reply] 6.9

[ask] State its pEC50, in vitro inhibition of cAMP on GPR6 receptor expressed in CHO-K1 cells (Homo sapiens, UniProt P46095): COc1ccc(OC)c(C(=O)Nc2cc(C#N)ccc2N2CCC(Oc3ccc(F)cc3F)CC2)c1 [Example 205]
[reply] 6.0

[ask] Can you look up pEC50, in vitro inhibition of cAMP on GPR6 receptor expressed in CHO-K1 cells (Homo sapiens, UniProt P46095) for N#Cc1ccc(N2CCC(Oc3ccc(F)cc3F)CC2)c(NC(=O)c2cc(C3CC3)on2)c1 [Example 125] ?
[reply] 6.7

Give me pEC50, in vitro inhibition of cAMP for each of these molecules, listed below.
1. CC(C)n1cccc(C(=O)Nc2cc(C#N)ccc2N2CCC(Oc3ccc(F)cc3F)CC2)c1=O [Example 181]
2. Cc1cn2c(=O)c(C(=O)Nc3cc(C#N)ccc3N3CCC(Oc4ccc(F)cc4F)CC3)cnc2s1 [Example 217]
3. N#Cc1ccc(N2CCC(Oc3ccc(F)cc3F)CC2)c(NC(=O)c2csnn2)c1 [Example 116]

[reply]
1: 6.4; 2: 6.7; 3: 5.9
